# TARGET_OF_ASSAY: Coagulation factor X (Homo sapiens)
# METHOD_NOTES: Inhibition of human factor 10a assessed as 25 x 10^-6M chromogenic TH substrate hydrolysis at 0.5 x 10^-3M
The source made the active and inactive calls. The calls are words filed in the database; no cut-off is given here.
QUANTITY: inhibition

{"CHEMICAL_STRUCTURE": "C[C@H]1O[C@@H](OC[C@@H]2O[C@H](Oc3c(-c4ccc(OS(=O)(=O)O)c(OS(=O)(=O)O)c4)oc4cc(OS(=O)(=O)O)cc(OS(=O)(=O)O)c4c3=O)[C@@H](OS(=O)(=O)O)[C@H](OS(=O)(=O)O)[C@H]2OS(=O)(=O)O)[C@@H](OS(=O)(=O)O)[C@@H](OS(=O)(=O)O)[C@@H]1OS(=O)(=O)O", "TARGET_OF_ASSAY": "Coagulation factor X (Homo sapiens)", "QUANTITY": "inhibition", "EXPERIMENTAL_VALUE": "inactive"}
{"CHEMICAL_STRUCTURE": "C[C@H]1O[C@@H](OC[C@@H]2O[C@H](Oc3c(-c4ccc(OCCOS(=O)(=O)O)c(OCCOS(=O)(=O)O)c4)oc4cc(OCCOS(=O)(=O)O)cc(O)c4c3=O)[C@@H](OS(=O)(=O)O)[C@H](OS(=O)(=O)O)[C@H]2OS(=O)(=O)O)[C@@H](OS(=O)(=O)O)[C@@H](OS(=O)(=O)O)[C@@H]1OS(=O)(=O)O", "TARGET_OF_ASSAY": "Coagulation factor X (Homo sapiens)", "QUANTITY": "inhibition", "EXPERIMENTAL_VALUE": "25.7%"}
{"CHEMICAL_STRUCTURE": "COc1ccc([C@@H]2CC(=O)c3c(O)cc(O[C@@H]4O[C@H](CO[C@@H]5O[C@@H](C)[C@H](OS(=O)(=O)O)[C@@H](OS(=O)(=O)O)[C@H]5OS(=O)(=O)O)[C@@H](OS(=O)(=O)O)[C@H](OS(=O)(=O)O)[C@H]4OS(=O)(=O)O)cc3O2)cc1O", "TARGET_OF_ASSAY": "Coagulation factor X (Homo sapiens)", "QUANTITY": "inhibition", "EXPERIMENTAL_VALUE": "inactive"}
{"CHEMICAL_STRUCTURE": "COc1ccc(-c2cc(=O)c3c(O)cc(O[C@@H]4O[C@H](CO[C@@H]5O[C@@H](C)[C@H](OS(=O)(=O)O)[C@@H](OS(=O)(=O)O)[C@H]5OS(=O)(=O)O)[C@@H](OS(=O)(=O)O)[C@H](OS(=O)(=O)O)[C@H]4OS(=O)(=O)O)cc3o2)cc1O", "TARGET_OF_ASSAY": "Coagulation factor X (Homo sapiens)", "QUANTITY": "inhibition", "EXPERIMENTAL_VALUE": "inactive"}

Reference source for all entries: ChEMBL document CHEMBL1649091
